Biological target: T1, CLDN6 endogenously expressed by human cancer cell lines (ARK2, OVCA429) (human, UniProt P56747 1-220)
T1 construct: Untagged endogenous protein; also called Endogenous CLDN6+
T1 sequence: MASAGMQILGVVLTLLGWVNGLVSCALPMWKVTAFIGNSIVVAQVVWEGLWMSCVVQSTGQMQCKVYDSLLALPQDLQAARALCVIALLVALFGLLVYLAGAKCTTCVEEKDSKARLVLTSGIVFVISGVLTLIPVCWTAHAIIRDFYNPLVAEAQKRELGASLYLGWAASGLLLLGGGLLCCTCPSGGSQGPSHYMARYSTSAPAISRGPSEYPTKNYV
Experiment: FACS, 1.5 µg Ab, ARK2 cells
Reported values of FACS fluorescence for individual entries
Write the number on its own, no unit after it.

binder="AB1-3 (antibody, V domains shown, also called Humanized AB 1-3) VH: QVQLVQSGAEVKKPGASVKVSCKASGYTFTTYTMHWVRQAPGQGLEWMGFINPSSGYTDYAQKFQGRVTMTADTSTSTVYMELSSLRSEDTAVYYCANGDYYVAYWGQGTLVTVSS VL: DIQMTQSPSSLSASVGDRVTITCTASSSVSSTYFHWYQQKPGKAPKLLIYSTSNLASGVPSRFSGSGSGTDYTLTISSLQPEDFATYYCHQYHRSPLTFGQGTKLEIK" quantity_kind="FACS fluorescence" reported_value=10800

Which FACS fluorescence value is on record for AB9-4 (antibody, V domains shown, also called Humanized AB 9-4) VH: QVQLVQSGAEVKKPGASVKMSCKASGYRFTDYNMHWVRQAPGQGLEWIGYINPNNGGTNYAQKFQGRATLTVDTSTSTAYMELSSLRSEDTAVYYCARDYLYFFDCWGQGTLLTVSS VL: DIQMTQSPSSLSASVGDRVTITCRASQTIGTWLAWYQQKPGKAPKLLIYAAASLADGVPSRFSGSGSGTDFTFTISSLQPEDFVTYYCQQLYSIPRTFGQGTKLEIK ?
1550
